Recorded measurements of pKd, one per entry
# assayedSystem: MAGI1_6, Q96QZ7
# Sequence (Q96QZ7 1146-1238): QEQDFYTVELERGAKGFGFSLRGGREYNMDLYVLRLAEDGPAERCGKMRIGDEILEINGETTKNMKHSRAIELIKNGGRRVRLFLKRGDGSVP
# methodDescription: holdup assay
# Parameters: key: below the threshold = too weak to quantify, mostly under pKd 3.1 to 4
# appliedConditions: plain residues with an end cap or a label only (N-terminal biotin on a linker: ttds)
recordedEndpoint: pKd

| binder | recordedEndpoint | recordedMeasurement |
| --- | --- | --- |
| PPRQRSETQV [HPV82-E6, Q9IR59] | pKd | 4.21 |
| SSIDLWETAL [SLC15A5, A6NIM6] | pKd | 5.18 |
| SHSSKGETAV [FZD7, O75084] | pKd | 4.7 |
